target: T1, M5; assay: scFv-phage ELISA
T1 construct: also called PD1 mutant M5
Entries and their measured OD490 follow.

Binder: PD1-29H3 (antibody, V domains shown, scFv-phage in the screening ELISA; later whole IgG) VH: QMQLVESGGNLVQPGRSLRLSCAASGFTFDDYGMHWVRQAPGKGLEWVSSISWNSGTIGYADSVKGRFTISRDNAKNSLYLQMNSLRSEDTAVYYCARLLHQMNEHEFMDVWGQGTTVTVSS VL: QLVLTQPSSMSEAPGQRVTISCSGGTSNIGTNAVNWYQQPPGKAPTLLIYYDDRLTSGVSDRFSGSKSGTSASLAISRLQSEDEADYYCAAWDDSLNGWVFGGGTKLTVL
OD490: 2
//
Binder: PD1-31F3 (antibody, V domains shown, scFv-phage in the screening ELISA; later whole IgG) VH: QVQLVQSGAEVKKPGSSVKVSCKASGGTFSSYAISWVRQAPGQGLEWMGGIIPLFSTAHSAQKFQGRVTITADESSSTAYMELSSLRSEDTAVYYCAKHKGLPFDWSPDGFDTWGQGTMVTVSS VL: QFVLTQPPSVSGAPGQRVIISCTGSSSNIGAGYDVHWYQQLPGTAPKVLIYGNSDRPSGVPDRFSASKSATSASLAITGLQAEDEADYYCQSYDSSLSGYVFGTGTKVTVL
OD490: 1.1
